Test: Zeta-potential measurement
Assay type: physicochemical
Method: 4 µL of 1 mg/mL peptide fibrils solution is added to a 20 µL, 50 µM ThT–solution in PBS. The mixture is incubated for 15 min at RT to allow binding of ThT dye with β–sheet rich structures. […] Fluorescence spectra were recorded on an Infinite® M1000 PRO microplate reader (Tecan) at λem = 488 nm upon excitation at λex = 440 nm with 10 nm bandwidths and multiple reads per well (3×3). […] Furthermore, fluorescence microscopy was conducted by staining 1 µL preformed fibrils (1 mg/mL) with 9 µL ThT (50 µM). […]
Some substances, each annotated with its measured Zeta category ( +1 = if > 4 mV;-1 = if < -4 mV; 0 = -4mV to 4 mV).

substance	result
CKYKYQY [KB2]	0 (0 = -4mV to 4 mV)
QCKIKQII [CK6]	1 (+1 = if > 4 mV)
HHHHKIKIKIKIWWWW [TM4]	1 (+1 = if > 4 mV)

Data request: Entry HHHHKIKIKIKIYYYY [TM6] needs its Zeta category ( +1 = if > 4 mV;-1 = if < -4 mV; 0 = -4mV to 4 mV) filled in; supply it.
Data returned: 1 (+1 = if > 4 mV)

Data request: Entry KFKFQFNMW [BL5 / KB13] needs its Zeta category ( +1 = if > 4 mV;-1 = if < -4 mV; 0 = -4mV to 4 mV) filled in; supply it.
Data returned: 1 (+1 = if > 4 mV)

Data request: Entry CKIKQII [MG4a] needs its Zeta category ( +1 = if > 4 mV;-1 = if < -4 mV; 0 = -4mV to 4 mV) filled in; supply it.
Data returned: 0 (0 = -4mV to 4 mV)

Data request: Entry EFEFQFNMWQ [JH1] needs its Zeta category ( +1 = if > 4 mV;-1 = if < -4 mV; 0 = -4mV to 4 mV) filled in; supply it.
Data returned: 0 (0 = -4mV to 4 mV)

====

Some substances, each annotated with its measured Fibril.
Type: physicochemical
Parameters: key: 1 = fibrils present; 0 non-fibrillar structures
Conditions: TEM; 1 = fibrils present, 0 = non-fibrillar
API note: the answer field is a bare number with no unit suffix.

Data request: Entry `QCKFKQFFNMWQ` needs its Fibril filled in; supply it.
Data returned: 1

Data request: Entry `MKFKFQF` needs its Fibril filled in; supply it.
Data returned: 1

Data request: Entry `CKIKQIINM` needs its Fibril filled in; supply it.
Data returned: 1

====

Type: physicochemical
Conditions: ThT category; 1 if Rel. ThT >2
endpoint: ThT Cat,

Guide cases for ThT Cat,, answers given:
substance	endpoint	result
CEFEFQF	ThT Cat,	0 (ThT-inactive (N-Fold <2))
CEFEFQFNMWQ	ThT Cat,	1 (ThT. Cat is 1, if Rel. ThT >2)
RGDSGGGGGGKIKIQIC	ThT Cat,	1 (ThT. Cat is 1, if Rel. ThT >2)
KIKIQII	ThT Cat,	0 (ThT-inactive (N-Fold <2))
NMWQKFKFQF	ThT Cat,	0 (ThT-inactive (N-Fold <2))

Now examine the next entry.
Data request: Entry `CKIKIQINM` needs its ThT Cat, filled in; supply it.
Data returned: 1 (ThT. Cat is 1, if Rel. ThT >2)
